The following compounds have recorded IC50 on Histone-lysine N-methyltransferase, H3 lysine-79 specific (Homo sapiens).
Sequence (Q8TEK3 whole entry): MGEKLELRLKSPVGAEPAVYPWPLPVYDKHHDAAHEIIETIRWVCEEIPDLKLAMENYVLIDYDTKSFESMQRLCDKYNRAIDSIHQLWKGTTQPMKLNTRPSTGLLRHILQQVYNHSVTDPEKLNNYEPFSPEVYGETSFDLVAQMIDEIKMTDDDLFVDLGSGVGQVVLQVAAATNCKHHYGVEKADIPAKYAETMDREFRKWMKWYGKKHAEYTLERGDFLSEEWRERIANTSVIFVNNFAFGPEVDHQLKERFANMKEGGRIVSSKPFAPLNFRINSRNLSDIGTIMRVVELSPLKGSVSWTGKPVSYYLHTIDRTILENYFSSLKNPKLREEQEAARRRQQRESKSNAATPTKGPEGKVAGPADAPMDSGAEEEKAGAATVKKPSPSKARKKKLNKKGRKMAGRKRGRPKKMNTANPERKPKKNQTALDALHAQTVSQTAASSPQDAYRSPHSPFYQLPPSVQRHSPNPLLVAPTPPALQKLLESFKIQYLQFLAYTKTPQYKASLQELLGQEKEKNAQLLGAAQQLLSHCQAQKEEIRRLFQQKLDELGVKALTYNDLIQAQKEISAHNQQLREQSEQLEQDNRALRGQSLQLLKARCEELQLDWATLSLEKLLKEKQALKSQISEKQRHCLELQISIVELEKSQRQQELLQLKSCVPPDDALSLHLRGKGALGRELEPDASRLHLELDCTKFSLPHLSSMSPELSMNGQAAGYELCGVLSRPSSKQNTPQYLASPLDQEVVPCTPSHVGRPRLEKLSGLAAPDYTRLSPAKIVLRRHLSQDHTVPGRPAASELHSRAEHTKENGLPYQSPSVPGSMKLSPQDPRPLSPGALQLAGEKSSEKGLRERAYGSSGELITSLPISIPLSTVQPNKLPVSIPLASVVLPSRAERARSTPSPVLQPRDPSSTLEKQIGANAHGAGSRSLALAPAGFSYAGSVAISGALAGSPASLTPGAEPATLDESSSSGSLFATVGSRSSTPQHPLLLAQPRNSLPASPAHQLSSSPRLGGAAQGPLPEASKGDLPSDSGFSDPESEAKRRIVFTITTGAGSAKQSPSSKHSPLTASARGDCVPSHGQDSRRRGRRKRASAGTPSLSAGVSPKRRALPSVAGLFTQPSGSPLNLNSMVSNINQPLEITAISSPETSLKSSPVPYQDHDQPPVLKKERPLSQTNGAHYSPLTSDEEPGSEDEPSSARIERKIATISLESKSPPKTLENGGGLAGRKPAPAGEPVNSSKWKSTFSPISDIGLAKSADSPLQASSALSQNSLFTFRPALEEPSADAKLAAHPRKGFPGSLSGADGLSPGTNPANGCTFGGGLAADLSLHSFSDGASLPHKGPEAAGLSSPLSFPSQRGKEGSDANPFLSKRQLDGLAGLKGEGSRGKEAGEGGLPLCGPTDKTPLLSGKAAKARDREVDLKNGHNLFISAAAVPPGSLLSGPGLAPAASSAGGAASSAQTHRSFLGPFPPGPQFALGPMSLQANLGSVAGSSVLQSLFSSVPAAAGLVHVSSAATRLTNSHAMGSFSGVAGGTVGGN
Metric: IC50 (µM)

{"Compound": "C#Cc1cn([C@@H]2O[C@H](CO)[C@@H](O)[C@H]2O)c2ncnc(N)c12", "Readout Value": 41}
{"Compound": "NC(=O)c1cn([C@@H]2O[C@H](CO)[C@@H](O)[C@H]2O)c2ncnc(N)c12 [SANGIVAMYCIN]", "Readout Value": 26}
{"Compound": "Nc1ncnc2c1c(F)cn2[C@@H]1O[C@H](CO)[C@@H](O)[C@H]1O", "Readout Value": 200}
{"Compound": "N#Cc1c(Br)n([C@@H]2O[C@H](CO)[C@@H](O)[C@H]2O)c2ncnc(N)c12", "Readout Value": 200}
{"Compound": "N#Cc1cn([C@@H]2O[C@H](CO)[C@@H](O)[C@H]2O)c2ncnc(N)c12 [TOYOCAMYCIN]", "Readout Value": 44}

* * *

# Tested Target: Histone-lysine N-methyltransferase SETD7 (Homo sapiens, UniProt Q8WTS6)
# Sequence (Q8WTS6 whole entry): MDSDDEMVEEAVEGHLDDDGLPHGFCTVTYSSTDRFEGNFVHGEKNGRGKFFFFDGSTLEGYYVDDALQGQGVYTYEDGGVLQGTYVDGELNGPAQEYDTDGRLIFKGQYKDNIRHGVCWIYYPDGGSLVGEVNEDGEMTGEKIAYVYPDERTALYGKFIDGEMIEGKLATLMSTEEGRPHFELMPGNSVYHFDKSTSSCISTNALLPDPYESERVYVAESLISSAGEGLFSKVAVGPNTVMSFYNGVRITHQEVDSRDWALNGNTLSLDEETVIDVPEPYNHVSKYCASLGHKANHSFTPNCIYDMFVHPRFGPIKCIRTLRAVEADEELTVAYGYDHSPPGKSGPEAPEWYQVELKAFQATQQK
# Experiment Notes: Inhibition of SETD7 (unknown origin)
# Experimental Conditions: read-out: IC50
pIC50: −log10 of the molar value.

{"Test Smiles": "Nc1ncnc2c1ncn2[C@@H]1O[C@H](CSCC[C@H](N)C(=O)O)[C@@H](O)[C@H]1O", "pIC50": 4.33}

* * *

pIC50: −log10 of the molar value.
The following compounds have recorded pIC50 on Protein arginine N-methyltransferase 3 (Homo sapiens).
Sequence (O60678 whole entry): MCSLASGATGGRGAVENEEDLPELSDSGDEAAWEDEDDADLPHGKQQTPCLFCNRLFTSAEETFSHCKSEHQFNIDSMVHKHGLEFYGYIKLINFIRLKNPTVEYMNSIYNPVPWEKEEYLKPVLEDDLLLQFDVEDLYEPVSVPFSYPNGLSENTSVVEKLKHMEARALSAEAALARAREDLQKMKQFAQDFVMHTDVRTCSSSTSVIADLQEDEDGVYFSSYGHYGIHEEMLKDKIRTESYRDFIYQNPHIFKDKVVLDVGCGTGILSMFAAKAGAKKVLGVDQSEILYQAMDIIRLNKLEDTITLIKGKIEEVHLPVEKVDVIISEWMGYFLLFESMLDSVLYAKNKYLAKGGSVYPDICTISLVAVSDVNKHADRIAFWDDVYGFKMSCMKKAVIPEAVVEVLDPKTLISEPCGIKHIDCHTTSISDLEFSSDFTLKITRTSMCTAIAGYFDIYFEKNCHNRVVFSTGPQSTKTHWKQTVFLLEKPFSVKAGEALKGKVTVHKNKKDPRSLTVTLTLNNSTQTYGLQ
Metric: pIC50

{"Test Smiles": "N#Cc1cn([C@@H]2O[C@H](CSCC[C@H](N)C(=O)O)[C@@H](O)[C@H]2O)c2ncnc(N)c12", "Tested Target": "Protein arginine N-methyltransferase 3 (Homo sapiens)", "Metric": "pIC50", "Readout Value": 6.06}
{"Test Smiles": "Nc1ncnc2c1ncn2[C@@H]1O[C@H](CSCC[C@H](N)C(=O)O)[C@@H](O)[C@H]1O", "Tested Target": "Protein arginine N-methyltransferase 3 (Homo sapiens)", "Metric": "pIC50", "Readout Value": 5.70}
